experimental_system: Ribosomal protein S6 kinase alpha-1 (Homo sapiens) (UniProt Q15418)
Sequence (Q15418 whole entry): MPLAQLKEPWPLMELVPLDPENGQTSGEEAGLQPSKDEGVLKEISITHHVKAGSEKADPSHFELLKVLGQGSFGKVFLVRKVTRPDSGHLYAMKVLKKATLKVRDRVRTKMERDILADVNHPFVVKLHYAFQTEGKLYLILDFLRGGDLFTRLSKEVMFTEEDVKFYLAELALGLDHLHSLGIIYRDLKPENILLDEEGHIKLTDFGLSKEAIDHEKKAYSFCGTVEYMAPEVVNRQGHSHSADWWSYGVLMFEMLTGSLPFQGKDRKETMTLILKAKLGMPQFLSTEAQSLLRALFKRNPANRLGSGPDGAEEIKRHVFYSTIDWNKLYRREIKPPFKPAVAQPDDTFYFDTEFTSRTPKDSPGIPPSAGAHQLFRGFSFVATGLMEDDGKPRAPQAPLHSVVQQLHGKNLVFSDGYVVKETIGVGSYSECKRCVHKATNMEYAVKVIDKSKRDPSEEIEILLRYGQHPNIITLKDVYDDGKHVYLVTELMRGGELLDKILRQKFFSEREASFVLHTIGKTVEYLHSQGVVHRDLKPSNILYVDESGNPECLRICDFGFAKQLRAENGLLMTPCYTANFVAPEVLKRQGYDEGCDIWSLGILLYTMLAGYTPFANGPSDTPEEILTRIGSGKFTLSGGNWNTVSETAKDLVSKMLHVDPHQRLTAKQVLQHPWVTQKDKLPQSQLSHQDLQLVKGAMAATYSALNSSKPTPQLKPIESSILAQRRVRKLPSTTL
condition: at 10 µM
observable: residual activity (%)
One number for each entry, in %.

Worked examples, 5 molecules total:
Oc1ccc(Nc2nc(-c3ccc(Cl)cc3)cs2)cc1 | 103
N#Cc1cnc2cnc(NCc3cccnc3)cc2c1Nc1ccc(F)c(Cl)c1 | 1
c1ccc2c(-c3ccncc3)c[nH]c2c1 | 67
Cc1ccc(S(=O)(=O)/C=C/C#N)cc1 | 121
c1ccc(-c2n[nH]c3c2oc2ccccc23)cc1 | 58

Batch: residual activity for all items listed.
1. COc1cccc(-c2cc(=O)c3ccccc3o2)c1N
2. Oc1c2ccccc2c2c3c(cccc13)N=N2
3. COc1cc2ncnc(Nc3ccc(NC(=O)c4ccccc4)cc3)c2cc1OC
4. CC(C)n1cnc2c(NCc3ccccc3)nc(NCCCO)nc21
5. Nc1cccc(-c2cc3c(Oc4cccc(O)c4)ncnc3[nH]2)c1
6. N#CC(C#N)=C(N)/C(C#N)=C/c1ccc(O)cc1
7. O=C1Nc2cc(Br)ccc2/C1=C1/Nc2ccccc2/C1=N\O

1: 81; 2: 64; 3: 75; 4: 82; 5: 68; 6: 78; 7: 73
